experiment: Half life in rat at 2.5 mg/kg, po; format: ADME, organism-based; design: dose 2.5 mg/kg, route oral; details: in vivo
quantity: half-life (h)

[P] Cc1noc(-c2cc(NCCN3CCCC3)c(C)c(N3CCN(c4ncnc5[nH]nc(Br)c45)CC3)c2)n1
[Q] Cc1c(NCCN2CCCC2)cc(C(=O)CCC(F)(F)F)cc1N1CCN(c2ncnc3[nH]nc(Br)c23)CC1 [XL-418]
Problem: Which has the higher half-life, P or Q ? Reply with the label of the item you choose.
Solution: Q
(Q: 7.9 h, P: 2.9 h)

###

test: Volume of distribution in monkey at 3 mg/kg; type: ADME, organism-based, Macaca mulatta; parameters: dose 3 mg/kg; conditions: rhesus monkey, in vivo
quantity: Vd (L/kg)
Report only the number, with the unit L/kg understood.

Problem: Need Vd, item Cc1c(NCCN2CCCC2)cc(C(=O)CCC(F)(F)F)cc1N1CCN(c2ncnc3[nH]nc(Br)c23)CC1 [XL-418]
Solution: 6.9
